# system.name: Glutathione peroxidase 1 (Homo sapiens) (UniProt P07203)
# Sequence (P07203 whole entry, looked up): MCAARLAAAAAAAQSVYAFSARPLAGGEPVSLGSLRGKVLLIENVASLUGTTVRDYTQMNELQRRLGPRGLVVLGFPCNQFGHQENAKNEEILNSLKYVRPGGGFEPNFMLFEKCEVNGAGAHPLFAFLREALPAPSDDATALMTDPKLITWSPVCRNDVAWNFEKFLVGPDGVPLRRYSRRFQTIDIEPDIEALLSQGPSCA
# protocol.text: Primary qHTS Assay for Inhibitors of Recombinant Selenoprotein Glutathione Peroxidase 1 (GPX1) (AID 1845191); further: nearly all actives have a fitted effect of over 65% in size
# assay.context: recombinant GPX1, GR-coupled NADPH fluorescence, 15 min; series mostly up to 48.8 µM
Records with an inconclusive call do not appear. Active and inactive are the calls of the source. The call rests on the fitted dose curve; in most records, active means well fitted inhibition curve with a large enough effect; inconclusive means small, poorly fitted or top-dose-only effect; inactive means flat fitted curve, though single readings scatter.
measurement.name: outcome

molecule	endpoint.result
CC(=O)Nc1cccc(Nc2ncnc(N3CCC(OCc4ccc(OC(F)(F)F)cc4)CC3)n2)c1C	inactive
COc1ccc(NC(=O)c2ccc(C(=N)N(C)C)cc2)c(C(=O)Nc2ccc(Cl)cn2)c1	inactive
CN1CCN(C2CCN(C(=O)Nc3cc(Oc4ccc(NC(=O)C5(C(=O)Nc6ccc(F)cc6)CC5)c(F)c4)ccn3)CC2)CC1	inactive
Fc1ccc(-n2cc(CCCCN3CCC4(CC3)OCc3ccccc34)c3ccccc32)cc1	inactive
O=C(NCCCCN1CCN(c2cccc(Cl)c2Cl)CC1)c1cc2ccccc2s1	inactive
CCC(C)CNCC(=O)N1CCc2sccc2C1COc1cccc(C)c1 (stereo not drawn)	inactive
Cc1c(NC(=O)c2cc3c(s2)CCCC3)cccc1-c1cn(C)c(=O)c(Nc2ccc(C3C(=O)N(C)CCN3C)cc2)n1 (stereo not drawn)	inactive
NCC1CCN(c2nccc(-c3ccc4ccccc4c3)n2)CC1	inactive
C[C@@H]1CC[C@]2(C(=O)O)CC[C@]3(C)C(=CCC4[C@@]5(C)CC[C@H](O)[C@](C)(C(=O)O)C5CC[C@]43C)C2[C@]1(C)O (stereo partly drawn)	inactive
CC(C)(Cc1ccccc1)NCC(O)c1ccc(O)c(NS(C)(=O)=O)c1 (stereo not drawn)	inactive
CCCCCCCCCCCCCCCC(=O)O[C@@H]1CC(C)=C(/C=C/C(C)=C/C=C/C(C)=C/C=C/C=C(C)/C=C/C=C(C)/C=C/C2=C(C)C[C@@H](OC(=O)CCCCCCCCCCCCCCC)CC2(C)C)C(C)(C)C1	inactive
O=C(Nc1ccccc1)N1CCC(Cc2cnc3ccccc3c2)CC1	inactive
CCN1C(C)(C)CC(Oc2ccc(C(=O)Nc3ccc(NC(=O)Nc4cc(C(C)(C)C)on4)cc3)nc2)CC1(C)C	inactive
CCC(CC)Nc1nc(C)c(-c2ccc(OC(F)(F)F)cc2OC)nc1OC	inactive
O=[N+]([O-])c1ccc(Oc2ccc(N=C=S)cc2)cc1	inactive
CCCC(CCC)C(=O)NCc1ccc2c(cnn2-c2ccccc2OC)c1	inactive
CCCCOC(=O)C(=O)Nc1cccc(-c2nn[nH]n2)c1	inactive
C=C1C(=O)OC2/C=C(\COC(C)=O)CC/C=C(\C=O)CC(OC(=O)CC(C)C)C12 (stereo not drawn)	inactive

====

# system.name: Cytochrome P450 2C9 (Homo sapiens) (UniProt P11712)
# Sequence (P11712 whole entry, looked up): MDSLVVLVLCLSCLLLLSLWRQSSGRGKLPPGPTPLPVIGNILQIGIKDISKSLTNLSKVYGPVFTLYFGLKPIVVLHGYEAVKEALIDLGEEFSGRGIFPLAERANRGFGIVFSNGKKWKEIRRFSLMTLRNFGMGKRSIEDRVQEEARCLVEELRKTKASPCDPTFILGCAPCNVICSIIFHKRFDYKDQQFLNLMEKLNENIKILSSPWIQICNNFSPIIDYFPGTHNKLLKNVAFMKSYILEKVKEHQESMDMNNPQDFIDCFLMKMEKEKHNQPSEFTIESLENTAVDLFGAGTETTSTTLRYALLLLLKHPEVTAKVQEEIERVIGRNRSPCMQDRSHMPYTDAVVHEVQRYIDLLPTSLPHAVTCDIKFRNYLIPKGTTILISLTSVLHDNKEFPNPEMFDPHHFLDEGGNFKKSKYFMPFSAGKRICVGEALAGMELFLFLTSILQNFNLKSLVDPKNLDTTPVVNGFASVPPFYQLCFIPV
# protocol.text: Cytochrome P450 family 2 subfamily C member 9 (CYP2C9) small molecule antagonists: luciferase biochemical (cell-free) qHTS assay (AID 1645842); further: nearly all actives have a fitted effect of over 55% in size
# assay.context: P450-Glo CYP2C9 enzyme assay, luciferin luminescence; series mostly up to 57.4 µM
Results filed as inconclusive are left out. Activity calls are given as the source filed them. The call rests on the fitted dose curve; in most records, active means well fitted inhibition curve with a large enough effect in the repeat runs; inconclusive means weak or mixed curves; inactive means no such curve, though single readings can be large or run the other way.
Classes used: active, inactive

In [3]: df
Out[3]:
                                    molecule                               system_name  label_value
 0  Cc1c(C(=O)Nc2ccc(N3CCC(N4CCOCC4)CC3)c(C#N)c2)cnn1-c1ccc(Cl)cc1  Cytochrome P450 2C9 (Homo sapiens) (UniProt P11712)       active
 1   COc1ccc2cc3c(NC(=O)c4ccco4)nn(C)c3nc2c1  Cytochrome P450 2C9 (Homo sapiens) (UniProt P11712)       active
 2  O=S(=O)(Cc1ccccc1)Nc1ccc(-c2ccc3c(cnn3-c3ccc(F)cc3)c2)c(C(F)(F)F)c1  Cytochrome P450 2C9 (Homo sapiens) (UniProt P11712)       active
 3  CCCC(CCC)C(=O)Nc1ccn([C@@H]2O[C@H](CO)[C@@H](O)C2(F)F)c(=O)n1  Cytochrome P450 2C9 (Homo sapiens) (UniProt P11712)       active
 4  CCCc1cc(C)n(C)c(=O)c1CN(C)C(=O)c1cc(-c2ccc(N3CCN(C(C)C)CC3)nc2)cc2c1cnn2C(C)C  Cytochrome P450 2C9 (Homo sapiens) (UniProt P11712)       active
 5  CCCC(Nc1nc(-c2ccc(NC(=O)NCC)c(OC)c2)ncc1C)c1cccnc1 (stereo not drawn)  Cytochrome P450 2C9 (Homo sapiens) (UniProt P11712)       active
 6  CC[C@@H](Nc1c(Nc2cccc(C(=O)N(C)C)c2O)c(=O)c1=O)c1cc(C(C)C)co1  Cytochrome P450 2C9 (Homo sapiens) (UniProt P11712)       active
 7  COCCN(C(=O)c1cc(OC)c(OC)c(OC)c1)c1nc(-c2ccccc2)cs1  Cytochrome P450 2C9 (Homo sapiens) (UniProt P11712)       active
 8  CCOc1ccc(-n2c(C(C)N(Cc3cccnc3)C(=O)Cc3ccc(F)c(C(F)(F)F)c3)nc3ncccc3c2=O)cc1 (stereo not drawn)  Cytochrome P450 2C9 (Homo sapiens) (UniProt P11712)       active
 9  CCO[C@H]1CN(C2CCC(O)(c3ccc4c(c3)OCO4)CC2)C[C@@H]1NC(=O)CNC(=O)c1cccc(C(F)(F)F)c1 (stereo partly drawn)  Cytochrome P450 2C9 (Homo sapiens) (UniProt P11712)       active
10  CCN(c1cc(-c2ccc(CN3CCOCC3)cc2)cc(C(=O)NCc2c(C)cc(C)[nH]c2=O)c1C)C1CCOCC1  Cytochrome P450 2C9 (Homo sapiens) (UniProt P11712)       active
11  CCCc1cc(C)[nH]c(=O)c1CNC(=O)c1cc(-c2ccc(N3CCN(C(C)C)CC3)nc2)cc2c1cnn2C(C)C  Cytochrome P450 2C9 (Homo sapiens) (UniProt P11712)       active
12  CC(F)(F)CN1CCOc2c(nn(-c3ccccc3Cl)c2-c2ccc(Cl)cc2)C1=O  Cytochrome P450 2C9 (Homo sapiens) (UniProt P11712)       active
13  O=C(NCCO)c1cccc(-c2cc(Nc3ccc(OC(F)(F)F)cc3)ncn2)c1  Cytochrome P450 2C9 (Homo sapiens) (UniProt P11712)       active
14        C#CCNCc1cc2cc(OCc3ccccc3)ccc2[nH]1  Cytochrome P450 2C9 (Homo sapiens) (UniProt P11712)       active
15  COc1ccc(NC(=O)c2ccc(C(=N)N(C)C)cc2)c(C(=O)Nc2ccc(Cl)cn2)c1  Cytochrome P450 2C9 (Homo sapiens) (UniProt P11712)       active
16  COC(=O)c1ccc(N2CCN(C)CC2)c(NC(=O)c2cccc(OC)c2)c1  Cytochrome P450 2C9 (Homo sapiens) (UniProt P11712)     inactive
17  COc1cc(C(=O)NC(=S)Nc2cccc(NC(=O)c3ccccc3)c2)cc(OC)c1OC  Cytochrome P450 2C9 (Homo sapiens) (UniProt P11712)       active
18  Nc1ncnc2c1c(-c1ccc(Oc3ccccc3)cc1)nn2[C@@H]1CCCNC1  Cytochrome P450 2C9 (Homo sapiens) (UniProt P11712)     inactive
19  Cc1cc(C)c2c(c1)C(N(Cc1cc(C(F)(F)F)cc(C(F)(F)F)c1)c1nnn(C)n1)CCCN2CC1CCC(C(=O)O)CC1 (stereo not drawn)  Cytochrome P450 2C9 (Homo sapiens) (UniProt P11712)       active
20  CCCNCCc1ccc(NS(=O)(=O)c2ccc(OC(F)(F)F)cc2)cc1  Cytochrome P450 2C9 (Homo sapiens) (UniProt P11712)       active
21  CCN(Cc1ccccc1)C(=O)Cn1c(=O)n(C)c2cnc(-c3ccccc3)nc21  Cytochrome P450 2C9 (Homo sapiens) (UniProt P11712)       active
22  Cc1csc(N(C(=O)CSc2ccc(-c3ccccc3)nn2)C2CC2)n1  Cytochrome P450 2C9 (Homo sapiens) (UniProt P11712)       active
23  O=S(=O)(O)Oc1ccc(C(c2ccc(OS(=O)(=O)O)cc2)c2ccccn2)cc1  Cytochrome P450 2C9 (Homo sapiens) (UniProt P11712)     inactive
24  CC(=O)Nc1cccc(Nc2ncnc(N3CCC(OCc4ccc(OC(F)(F)F)cc4)CC3)n2)c1C  Cytochrome P450 2C9 (Homo sapiens) (UniProt P11712)       active
25  c1ccc(-c2cnn3cc(-c4ccc(OCCN5CCOCC5)cc4)cnc23)cc1  Cytochrome P450 2C9 (Homo sapiens) (UniProt P11712)       active
26      O=C(NC1CCC1)c1ccc(C#Cc2cccc(F)c2)nc1  Cytochrome P450 2C9 (Homo sapiens) (UniProt P11712)     inactive
27  Cc1[nH]c(/C=C2\C(=O)Nc3cc(-c4ccccc4)ccc32)c(C)c1CCC(=O)O  Cytochrome P450 2C9 (Homo sapiens) (UniProt P11712)       active
28  O=C(C1CCCCC1)N(CCN1CCN(c2ccccc2O)CC1)c1ccccn1  Cytochrome P450 2C9 (Homo sapiens) (UniProt P11712)       active
29  Cc1c(NC(=O)OCC2COCCN2)cn2ncnc(Nc3ccc4c(cnn4Cc4cccc(F)c4)c3)c12 (stereo not drawn)  Cytochrome P450 2C9 (Homo sapiens) (UniProt P11712)       active
30  O=S(=O)(N[C@H]1CCCC[C@@H]1N1CCOCC1)c1ccc(Cl)cc1  Cytochrome P450 2C9 (Homo sapiens) (UniProt P11712)       active
31  O=C(NCc1ccccc1)c1ccc2c(=O)n(-c3cccc(C(F)(F)F)c3)c(=S)[nH]c2c1  Cytochrome P450 2C9 (Homo sapiens) (UniProt P11712)       active
32  CC(=O)NC(C)c1cnc(-c2cnc(Oc3ccc(OC(C)C)cc3)s2)s1 (stereo not drawn)  Cytochrome P450 2C9 (Homo sapiens) (UniProt P11712)       active
33  COc1nc2ccc(Br)cc2cc1[C@@H](c1ccccc1)[C@@](O)(CCN(C)C)c1cccc2ccccc12  Cytochrome P450 2C9 (Homo sapiens) (UniProt P11712)       active
34  CC(C)CCNc1ncccc1C(=O)N1CCN(Cc2ccccc2)CC1  Cytochrome P450 2C9 (Homo sapiens) (UniProt P11712)       active
35  CCn1c(=O)c(-c2ccc(-c3cncs3)cc2Cl)cc2cnc(Nc3ccc(N4CCN(C)CC4)cc3)nc21  Cytochrome P450 2C9 (Homo sapiens) (UniProt P11712)       active
36  O=C(NCCCNc1nc(Nc2cccc(CN3CCOCC3)c2)ncc1C1CC1)C1CCC1  Cytochrome P450 2C9 (Homo sapiens) (UniProt P11712)       active
37  CNS(=O)(=O)c1ccccc1Nc1nc(Nc2ccc(N3CCN(C)CC3)cc2OC)ncc1Br  Cytochrome P450 2C9 (Homo sapiens) (UniProt P11712)     inactive

# credit: PubChem BioAssay (NCATS)
